biological target: Carbonic anhydrase 6 (Homo sapiens)
Sequence (P23280 whole entry): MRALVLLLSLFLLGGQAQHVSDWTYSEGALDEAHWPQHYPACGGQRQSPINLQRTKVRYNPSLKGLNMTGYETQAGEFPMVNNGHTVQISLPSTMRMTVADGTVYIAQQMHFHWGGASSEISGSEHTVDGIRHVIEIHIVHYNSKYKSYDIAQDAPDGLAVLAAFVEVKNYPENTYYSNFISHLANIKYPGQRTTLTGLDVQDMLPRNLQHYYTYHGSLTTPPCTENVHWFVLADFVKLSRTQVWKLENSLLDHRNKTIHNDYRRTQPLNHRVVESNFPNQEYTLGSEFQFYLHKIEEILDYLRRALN
readoutType: Ki
Write the numeric value and append its unit.

[[record]]
compound = "Nc1ccc(S(=O)(=O)Nc2ncccn2)cc1"
recordedvalue = "11.6 µM"

[[record]]
compound = "Cc1ccc(S(=O)(=O)Nc2ccc(C#N)cc2)cc1"
recordedvalue = "1.23 µM"

[[record]]
compound = "Cc1ccc(S(=O)(=O)Nc2c(C)cc(C)cc2C)cc1 [CA inhibitor, 4]"
recordedvalue = "32.2 µM"

[[record]]
compound = "Cc1ccc(NS(=O)(=O)c2ccc(C)cc2)cc1 [Carbonic anhydrase inhibitors (CAIs), 1]"
recordedvalue = "24.3 µM"

[[record]]
compound = "Cc1ccc(S(=O)(=O)Nc2ccccc2C)cc1"
recordedvalue = "29.6 µM"


query: Return Ki measured with Carbonic anhydrase 6 (Homo sapiens) given this compound: "Cc1ccc(S(=O)(=O)Nc2ccc3ccccc3c2)cc1"
result: 42.4 µM

query: Return Ki measured with Carbonic anhydrase 6 (Homo sapiens) given this compound: "Cc1ccc(S(N)(=O)=O)cc1"
result: 19 µM

Hey, just so you know, these numbers are from BindingDB's records for doi:10.3109/14756366.2011.617745.
